ASSAYED TARGET: BoNT/A (Clostridium botulinum, UniProt P0DPI0)
Sequence (P0DPI0 1-448 limits assumed): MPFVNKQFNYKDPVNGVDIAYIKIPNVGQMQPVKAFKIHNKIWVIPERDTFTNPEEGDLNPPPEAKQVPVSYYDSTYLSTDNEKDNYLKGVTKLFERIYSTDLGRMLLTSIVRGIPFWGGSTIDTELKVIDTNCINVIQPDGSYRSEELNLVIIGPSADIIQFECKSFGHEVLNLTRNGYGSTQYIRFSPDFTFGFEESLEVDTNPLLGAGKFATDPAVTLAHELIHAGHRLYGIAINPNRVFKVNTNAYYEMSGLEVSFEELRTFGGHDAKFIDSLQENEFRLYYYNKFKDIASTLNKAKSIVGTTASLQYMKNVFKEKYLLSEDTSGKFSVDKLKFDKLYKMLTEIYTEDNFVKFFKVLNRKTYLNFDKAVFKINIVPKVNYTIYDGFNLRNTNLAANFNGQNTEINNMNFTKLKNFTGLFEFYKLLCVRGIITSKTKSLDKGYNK
EXPERIMENTAL PROTOCOL: biochemical
CONDITION INFO: read-out: % Inhibition against BoNT/A (5 μM)
READOUT TYPE: inhibition at 5 µM (%)
Answers are plain numbers, in %.

> print(dat)
                                   compound  uom  meas.value
1  Cc1ccc2ccc(C(Nc3cccnc3)c3ccccc3)c(O)c2n1 (stereo not drawn) [Compound 5116-047A]    %          83
2  Nc1cc(C(Nc2ccccn2)c2ccccc2)c(O)c2ncccc12 (stereo not drawn) [Compound 4874-051A]    %          94
3  Cc1ccc2ccc(C(Nc3cccnc3)c3ccc(F)cc3)c(O)c2n1 (stereo not drawn) [Compound 5116-048A]    %          87

// input: 3 compounds below; output: inhibition at 5 µM for each
1. Oc1c(C(Nc2cccnc2)c2ccc(F)cc2)cc(Cl)c2cccnc12 (stereo not drawn) [Compound 5116-051A]
2. Oc1c(C(Nc2cccnc2)c2ccccc2F)cc(Cl)c2cccnc12 (stereo not drawn) [Compound 5116-052A]
3. Oc1c(C(Nc2cccnc2)c2ccc(F)cc2)ccc2cccnc12 (stereo not drawn) [Compound 5116-050A]

(A)
[91, 97.5, 86.7]

* * *

ASSAYED TARGET: recombinant full-length BoNT/A light chain (rALC) (Clostridium botulinum, UniProt P0DPI0)
Sequence (P0DPI0 2-448 limits assumed): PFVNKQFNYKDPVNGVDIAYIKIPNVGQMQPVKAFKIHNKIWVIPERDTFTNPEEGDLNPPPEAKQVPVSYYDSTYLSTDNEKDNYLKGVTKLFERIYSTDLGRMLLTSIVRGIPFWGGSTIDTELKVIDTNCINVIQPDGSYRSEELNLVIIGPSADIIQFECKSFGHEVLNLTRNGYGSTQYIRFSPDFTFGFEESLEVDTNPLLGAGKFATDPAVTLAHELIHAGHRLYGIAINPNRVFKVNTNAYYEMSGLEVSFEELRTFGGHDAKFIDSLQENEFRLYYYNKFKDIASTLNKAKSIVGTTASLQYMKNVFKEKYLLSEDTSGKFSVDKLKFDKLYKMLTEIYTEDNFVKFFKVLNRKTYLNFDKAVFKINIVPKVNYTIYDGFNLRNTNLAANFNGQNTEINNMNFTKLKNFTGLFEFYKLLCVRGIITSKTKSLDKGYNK
EXPERIMENTAL PROTOCOL: biochemical
CONDITION INFO: read-out: % Inhibition Against rALC
Can you tell me inhibition at 20 µM for the items I'm about to list?
Numbers only, in %.

Some solved entries appear below for comparison.
> print(dat)
                                   compound         readout.type  meas.value
1  Oc1c(C(Nc2cccnc2)c2ccccc2F)ccc2cccnc12 (racemic)  inhibition at 20 µM        92.8
2  CCOc1ccc(C(Nc2cccnc2)c2cc(Cl)c3cccnc3c2O)cc1 (racemic)  inhibition at 20 µM        96.2

# per-item lookup of inhibition at 20 µM; items listed below
1. Oc1c(C(Nc2cccnc2)c2ccc(C(F)(F)F)cc2)ccc2cccnc12 (racemic)
2. Oc1c(C(Nc2cccc3cccnc23)c2ccccc2)ccc2cccnc12 (racemic)

(A)
92.7
91.9

* * *

ASSAYED TARGET: BoNT/A (Clostridium botulinum)
EXPERIMENTAL PROTOCOL: biochemical
READOUT TYPE: pIC50
Numbers only, as −log10 of the molar value.

> print(dat)
                                   compound  readout.type  meas.value
1  Oc1c(C(Nc2cccnc2)c2ccc(F)cc2)ccc2cccnc12 (stereo not shown) [Compound 5116-050A]         pIC50        5.92

Proceed to the following item.
(Q) Bench note: what pIC50 did Nc1cc(C(Nc2ccccn2)c2ccccc2)c(O)c2ncccc12 (stereo not shown) [Compound 4874-051A] show?
(A) 5.66
